System: Fibroblast
protocol: Incucyte cell viability with human fibroblast; note: filed as whole numbers so only -1 and 0 and 1 occur
Format: toxicity, cell-based
test_context: 12 h, 10 µM, compound concentration 10 uM, replicate number 1, timepoint 12 hours
Documented Growth Rate across a set of compounds
outcome_measure: Growth Rate

INSERT INTO assay_data (compound, experimental_result) VALUES
  ('O=C(NCc1ncc(C(F)(F)F)cc1Cl)c1ccc2c(c1)C1(CCS(=O)(=O)CC1)[C@@H](C1CC1)N2S(=O)(=O)c1ccc(F)cc1', 1),
  ('CCc1nn(CCCN2CCN(c3cccc(Cl)c3)CC2)c(=O)n1CCOc1ccccc1.Cl [NEFAZODONE HYDROCHLORIDE]', 0),
  ('Cc1cc(NC(=O)c2cccc(S(F)(F)(F)(F)F)c2)cc(-n2ccn3nc(-c4cccnc4)cc23)c1', 0),
  ('CO[C@@H](C)c1c(Nc2ccc([C@H](N(C)C(=O)C3CCS(=O)(=O)CC3)C(F)(F)F)cc2)cnc2cc(Cl)nn12', 0),
  ('CC(C)c1noc(N2CCC(COc3ccc(-c4ccc(S(C)(=O)=O)cc4)nc3)CC2)n1', 0),
  ('CSc1cccnc1N1CCN(Cc2nc3ccccc3[nH]2)CC1', 0),
  ('C=CC(=O)Nc1ccc2[nH]c(=O)n(C3CCN(Cc4ccc(-c5nc6cc[nH]c(=O)c6cc5-c5ccccc5)cc4)CC3)c2c1', 1),
  ('Cl.O=C(O)c1cc(-c2ccc(C3CCNCC3)cc2)c2ccc(-c3ccc(C(F)(F)F)cc3)cc2c1', 1),
  ('COCCOc1nc(-c2ccc(Cl)nc2)nc2c1CN(C(=O)c1ncn3ccccc13)CC2', 1),
  ('CC(C)OC(=O)N1CCC(Oc2ncnc3c2cnn3-c2ccc(S(C)(=O)=O)cc2F)CC1', 1),
  ('O=C(O)CC/C=C\C[C@@H]1CO[C@H](c2ccccc2Cl)O[C@@H]1c1ccccc1O', 1),
  ('CN1CCN(Cc2cc(NC(=O)c3ccc4c(c3)CN(c3ccccc3)CC4)cc(C(F)(F)F)c2)CC1', 0),
  ('Cc1cc(C(C)(C)C)c(O)c(C)c1CC1=NCCN1.Cl [OXYMETAZOLINE HYDROCHLORIDE]', 1),
  ('O=c1cc(N2CCOCC2)oc2c(-c3cccc4c3sc3ccccc34)cccc12', 0),
  ('CCOc1cn(-c2ccc(F)cc2C)nc1C(=O)Nc1ccc(Oc2ccnc3cc(OC)c(OC)cc23)c(F)c1', 0),
  ('O=C(O)C1CN(Cc2ccc(OCc3ccc(Cl)c(Cl)c3)cc2)C1', 0);
